Target: human calcium channel α1I subunit (α1I channel) (Homo sapiens, UniProt Q9P0X4, I1040V)
Sequence (Q9P0X4 1-1981 isoform Q9P0X4-3 I1005V): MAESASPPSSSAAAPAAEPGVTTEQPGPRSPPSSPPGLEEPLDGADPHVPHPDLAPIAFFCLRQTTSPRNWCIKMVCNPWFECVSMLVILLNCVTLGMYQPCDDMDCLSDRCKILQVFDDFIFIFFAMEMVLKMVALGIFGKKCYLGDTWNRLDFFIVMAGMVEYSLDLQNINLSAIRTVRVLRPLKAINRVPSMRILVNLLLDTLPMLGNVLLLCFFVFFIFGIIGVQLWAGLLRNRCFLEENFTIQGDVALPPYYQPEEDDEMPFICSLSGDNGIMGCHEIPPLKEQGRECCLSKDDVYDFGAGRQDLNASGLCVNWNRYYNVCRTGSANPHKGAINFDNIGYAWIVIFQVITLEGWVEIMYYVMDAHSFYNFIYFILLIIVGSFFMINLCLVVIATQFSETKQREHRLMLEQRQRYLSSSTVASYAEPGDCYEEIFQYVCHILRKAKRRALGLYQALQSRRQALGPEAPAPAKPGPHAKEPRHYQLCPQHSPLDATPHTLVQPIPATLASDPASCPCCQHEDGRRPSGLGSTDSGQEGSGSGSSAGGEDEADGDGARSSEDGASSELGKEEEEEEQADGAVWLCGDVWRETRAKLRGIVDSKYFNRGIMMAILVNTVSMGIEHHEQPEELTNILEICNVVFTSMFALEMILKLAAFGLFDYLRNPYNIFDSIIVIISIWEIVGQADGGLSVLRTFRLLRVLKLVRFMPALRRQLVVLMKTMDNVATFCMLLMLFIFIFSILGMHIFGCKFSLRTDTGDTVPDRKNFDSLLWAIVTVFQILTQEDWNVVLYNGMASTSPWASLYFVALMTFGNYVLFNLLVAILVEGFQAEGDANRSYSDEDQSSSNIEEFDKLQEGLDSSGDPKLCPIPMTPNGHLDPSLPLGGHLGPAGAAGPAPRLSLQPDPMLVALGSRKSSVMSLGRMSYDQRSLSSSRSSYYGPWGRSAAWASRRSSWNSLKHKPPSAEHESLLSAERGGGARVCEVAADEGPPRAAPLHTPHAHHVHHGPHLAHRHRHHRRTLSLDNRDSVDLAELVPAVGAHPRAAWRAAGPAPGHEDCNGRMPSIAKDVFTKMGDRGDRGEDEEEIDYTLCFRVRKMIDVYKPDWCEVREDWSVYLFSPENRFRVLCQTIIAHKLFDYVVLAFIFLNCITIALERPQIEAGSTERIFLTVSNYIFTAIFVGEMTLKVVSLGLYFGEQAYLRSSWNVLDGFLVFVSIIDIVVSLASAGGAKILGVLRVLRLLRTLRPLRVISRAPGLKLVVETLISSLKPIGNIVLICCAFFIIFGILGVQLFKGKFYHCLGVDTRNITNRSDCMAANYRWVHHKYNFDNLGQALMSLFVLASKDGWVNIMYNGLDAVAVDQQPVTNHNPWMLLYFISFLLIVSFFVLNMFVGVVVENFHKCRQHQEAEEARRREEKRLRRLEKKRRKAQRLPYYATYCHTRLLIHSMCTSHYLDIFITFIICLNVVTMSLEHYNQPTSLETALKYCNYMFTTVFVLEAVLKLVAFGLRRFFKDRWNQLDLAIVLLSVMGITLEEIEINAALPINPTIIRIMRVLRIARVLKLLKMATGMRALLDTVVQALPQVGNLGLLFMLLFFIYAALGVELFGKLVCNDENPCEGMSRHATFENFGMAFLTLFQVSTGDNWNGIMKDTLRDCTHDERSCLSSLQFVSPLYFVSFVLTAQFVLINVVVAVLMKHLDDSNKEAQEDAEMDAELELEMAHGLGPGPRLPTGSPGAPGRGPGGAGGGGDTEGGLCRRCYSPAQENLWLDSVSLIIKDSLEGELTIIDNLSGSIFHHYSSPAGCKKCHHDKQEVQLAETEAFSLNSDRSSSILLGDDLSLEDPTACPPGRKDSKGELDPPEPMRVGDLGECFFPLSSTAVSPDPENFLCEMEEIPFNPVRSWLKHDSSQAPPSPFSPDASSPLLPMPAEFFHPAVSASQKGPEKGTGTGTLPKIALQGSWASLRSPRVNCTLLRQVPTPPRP
Test: Calcium influx measured by FLIPR in B21 cells
Conditions: B21 cells induced by 0.1 μM tetracycline; read-out: EC50 of Ca^2+ influx after Ca^2+ addition
pEC50: −log10 of the molar value.
reported-endpoint: pEC50

[Ca+2] | 3.00

###

Target: human calcium channel α1I subunit (α1I channel) (Homo sapiens, UniProt Q9P0X4, I1040V)
Test: Calcium influx measured by FLIPR in B21 cells
Conditions: B21 cell induced by 0.1 uM tetracycline; mean ± S.E., n=3; read-out: IC50 for inhibition of calcium influx
reported-endpoint: IC50 (µM)

O=c1[nH]c2ccccc2n1C1CCN(CCCC(c2ccc(F)cc2)c2ccc(F)cc2)CC1 [Pimozide] | 1
COCCOC(=O)C1=C(C)NC(C)=C(C(=O)OC(C)C)C1c1cccc([N+](=O)[O-])c1 (centres unmarked) | 9.51
